Data provenance is ChEMBL document CHEMBL1201862.

- Tested on: HOP-62
- Protocol: NCI tumour cell line growth inhibition, 48 h
Activity calls are given as the source filed them. Cut-off read from the data, not from the text of the source: active = GI50 up to about 1.1 µM and inactive = higher.
Select the correct class. Options are active, inactive and nothing else.

Worked examples follow.
Cn1c(-c2cccs2)cc(-c2cccs2)c1-c1ccco1 :: inactive
CCN1CCN(c2ccc(Nc3ccnc4ccc5nn(C)nc5c34)cc2)CC1 :: inactive
COc1ccc(/N=N/c2c(O)ccc3ccccc23)cc1 :: inactive
Cc1cccc(-c2cc(O)c3cccnc3n2)c1 :: inactive
O=C(Nc1nc(C23CC4CC(CC(C4)C2)C3)cs1)c1cc2cc(Br)cc(Br)c2oc1=O :: inactive
COc1ccc2nc(N/N=C/C(C)=N/Nc3cc(C)c4cc(OC)ccc4n3)cc(C)c2c1 :: inactive
O=[N+]([O-])c1cccc(C2SCc3nc4ccccc4n32)c1 (stereo not given) :: inactive
CC1=C(C(=O)Nc2cccc(Cl)c2)C(c2ccccc2O)C(C(=O)Nc2cccc(Cl)c2)=C(C)N1 :: inactive

Problem: For C/C(=N\NC(=S)NC(C)(C)C)c1nc2cccnc2[nH]1 , what call appears in the results of this test?
Result: inactive
